system: SK-MEL-2 melanoma; assay: NCI tumour cell line growth inhibition, 48 h
measured-attribute: GI50

[ask] Kindly state the measured GI50 obtained for Nc1n[nH]c2ccc([C@@H]3Nc4ccc5cn[nH]c5c4[C@H]4C5CCC(C5)[C@@H]34)cc12 (some centres not stated) with SK-MEL-2 melanoma.
[reply] 0.621 µM

[ask] Kindly state the measured GI50 obtained for CC[C@@H](C)/C=C(C)/C=C/C(=O)c1c(O)c(-c2ccc(O)cc2)cn(OC2CC(=O)CCC(C)OC(=O)CC2O)c1=O (some centres not stated) with SK-MEL-2 melanoma.
[reply] 0.489 µM

[ask] Kindly state the measured GI50 obtained for Nc1c(C(=O)Nc2cccc(C(F)(F)F)c2)sc2nc3c(cc12)CCCCCC3 with SK-MEL-2 melanoma.
[reply] 4.35 µM

[ask] Kindly state the measured GI50 obtained for O=c1/c(=C\c2ccc(Br)cc2)sc2n1C(c1ccc(Br)cc1)C1=C(N=2)c2ccc3ccccc3c2OCC1 (configuration not stated) with SK-MEL-2 melanoma.
[reply] > 100 µM

[ask] Kindly state the measured GI50 obtained for COc1cc(C)[nH]c(=O)c1CNC(=O)c1c(C)n([C@H](C)C2CCN(CC(F)(F)F)CC2)c2ccccc12 with SK-MEL-2 melanoma.
[reply] 47.3 µM

[ask] Kindly state the measured GI50 obtained for COc1c(B(O)O)cccc1-c1nc2c(F)cc3n[nH]c(C)c3c2c2c1CCCC2 with SK-MEL-2 melanoma.
[reply] 1.45 µM

[ask] Kindly state the measured GI50 obtained for O=C1c2ccc3c4c(ccc(c24)C(=O)N1CCNCc1ccccc1)C(=O)N(CCNCc1ccccc1)C3=O with SK-MEL-2 melanoma.
[reply] 2.23 µM

[ask] Kindly state the measured GI50 obtained for CC(=O)N[C@@H](Cc1ccc(OP(=O)(O)O)cc1)C(=O)N[C@H]1CCC(=O)N2CCC[C@@H](C(=O)NC3CCc4ccccc43)N2C1=O (some centres not stated) with SK-MEL-2 melanoma.
[reply] > 25 µM

[ask] Kindly state the measured GI50 obtained for Cc1cc(C)c2c(c1)N(C)c1ncnc(-n3cnc4cc(C)ccc43)c1CC2C (configuration not stated) with SK-MEL-2 melanoma.
[reply] 4.21 µM

[ask] Kindly state the measured GI50 obtained for CCCCCCCCCC[C@H](O)[C@H]1CC[C@@H]([C@@H](O)CC[C@H](O)[C@@H]2CCC(CCCCCCC[C@@H](O)CC3=C[C@H](C)OC3=O)O2)O1 (some centres not stated) with SK-MEL-2 melanoma.
[reply] 8.82 µM

[ask] Kindly state the measured GI50 obtained for O=C(Nc1cccc(-n2cc(-c3ccncc3)c(-c3ccc(Cl)c(O)c3)n2)c1)Nc1ccc(Cl)c(Cl)c1 with SK-MEL-2 melanoma.
[reply] 1.03 µM

[ask] Kindly state the measured GI50 obtained for COc1cc(C2CC(c3cccc(Nc4ccnc5cc(Cl)ccc45)c3)=NN2c2ccccc2)cc(OC)c1OC (configuration not stated) with SK-MEL-2 melanoma.
[reply] 8.78 µM

---

Reported GI50 for target or system U251 CNS, by entry.

[ask] Recorded GI50 of C=CC(=O)N1CCC[C@@H](n2nc(-c3ccc(Oc4ccccc4)cc3)c3c(N)ncnc32)C1 , please.
[reply] 9.81 µM

[ask] Recorded GI50 of CC/C(=C(/c1ccc(OCCN(C)C)cc1)c1ccc(OC(=O)CCCCCCCCC(=O)c2c(C)[nH]c(/C=C3\N=C(c4ccc[nH]4)C=C3OC)c2C)cc1)c1ccccc1 , please.
[reply] 4.2 µM

[ask] Recorded GI50 of Nc1n[nH]c2ccc([C@@H]3Nc4ccc5cn[nH]c5c4[C@H]4C5CCC(C5)[C@@H]34)cc12 (some centres undefined) , please.
[reply] 0.436 µM

[ask] Recorded GI50 of Cc1cc(C)c2c(c1)N(C)c1ncnc(-n3cnc4cc(C)ccc43)c1CC2C (centres undefined) , please.
[reply] 3.55 µM
